System Name: IDO1 (Homo sapiens, UniProt P14902)
Sequence (P14902 whole entry): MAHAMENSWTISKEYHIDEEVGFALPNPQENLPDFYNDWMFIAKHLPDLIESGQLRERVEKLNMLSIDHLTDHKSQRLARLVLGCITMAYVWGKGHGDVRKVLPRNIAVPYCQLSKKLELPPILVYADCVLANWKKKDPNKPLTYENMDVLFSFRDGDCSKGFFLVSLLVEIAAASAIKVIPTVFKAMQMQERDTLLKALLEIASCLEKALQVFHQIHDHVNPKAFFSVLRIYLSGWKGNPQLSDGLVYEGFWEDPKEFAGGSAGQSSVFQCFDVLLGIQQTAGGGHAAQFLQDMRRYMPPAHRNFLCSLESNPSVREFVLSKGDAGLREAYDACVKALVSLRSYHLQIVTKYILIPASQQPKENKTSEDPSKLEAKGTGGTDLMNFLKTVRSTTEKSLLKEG
Experiment Notes: IDO1 Cellular Assay in HeLa Cells Stimulated with IFNγ
Assay type: cell-based
Experimental Conditions: about 48 hours, read-out: Hela IC50
Readout Label: pIC50
Here pIC50 is given on a logarithmic scale as minus log10 of the concentration in mol/L.

Before answering, review these 3 worked examples.
> print(dat)
                                   compound  readout.label  quantitative.result
1  CC(C)(C(=O)Nc1ccc(Cl)cc1)c1ccc2c(c1)CCCN2C(=O)c1cccc(Cl)c1 [Example 187]          pIC50                 8.35
2  Cc1cc(C(=O)NCc2ccc3c(c2)CCCN3C(=O)c2cccc(Cl)c2)on1 [Example 20]          pIC50                 7.22
3  CC(C(=O)Nc1ccc(F)cc1)c1ccc2c(c1)CCCN2C1COC1 (stereo not shown) [Example 231]          pIC50                 7.04

Let us move to another entry and its pIC50.
Query: For the compound shown here, Cc1nccc(N2CCCc3nc(C4(C(=O)Nc5ccc(F)cc5)CCC4)ccc32)n1 [Example 403] , give the reported pIC50.
Response: 8.67
